Values were extracted from ChEMBL document CHEMBL1212709.

# systemTested: Phospholipase D1 (Homo sapiens, UniProt Q13393)
# assay: Inhibition of human PLD1 assessed as release of methyl-[3H]choline from choline-methyl-[3H]dipalmitoylphosphatidylcholine after 30 mins by exogenous substrate assay
pIC50: −log10 of the molar value.
# pIC50 >= 7 gives satisfied, anything below gives not satisfied

Query: Determine whether this molecule has pIC50 no lower than 7: O=C(NCCN1CCC(n2c(O)nc3ccccc32)CC1)c1cccc2c1-c1ccccc1C2=O
Reply: not satisfied

###

# systemTested: Phospholipase D1 (Homo sapiens)
# Sequence (Q13393 whole entry): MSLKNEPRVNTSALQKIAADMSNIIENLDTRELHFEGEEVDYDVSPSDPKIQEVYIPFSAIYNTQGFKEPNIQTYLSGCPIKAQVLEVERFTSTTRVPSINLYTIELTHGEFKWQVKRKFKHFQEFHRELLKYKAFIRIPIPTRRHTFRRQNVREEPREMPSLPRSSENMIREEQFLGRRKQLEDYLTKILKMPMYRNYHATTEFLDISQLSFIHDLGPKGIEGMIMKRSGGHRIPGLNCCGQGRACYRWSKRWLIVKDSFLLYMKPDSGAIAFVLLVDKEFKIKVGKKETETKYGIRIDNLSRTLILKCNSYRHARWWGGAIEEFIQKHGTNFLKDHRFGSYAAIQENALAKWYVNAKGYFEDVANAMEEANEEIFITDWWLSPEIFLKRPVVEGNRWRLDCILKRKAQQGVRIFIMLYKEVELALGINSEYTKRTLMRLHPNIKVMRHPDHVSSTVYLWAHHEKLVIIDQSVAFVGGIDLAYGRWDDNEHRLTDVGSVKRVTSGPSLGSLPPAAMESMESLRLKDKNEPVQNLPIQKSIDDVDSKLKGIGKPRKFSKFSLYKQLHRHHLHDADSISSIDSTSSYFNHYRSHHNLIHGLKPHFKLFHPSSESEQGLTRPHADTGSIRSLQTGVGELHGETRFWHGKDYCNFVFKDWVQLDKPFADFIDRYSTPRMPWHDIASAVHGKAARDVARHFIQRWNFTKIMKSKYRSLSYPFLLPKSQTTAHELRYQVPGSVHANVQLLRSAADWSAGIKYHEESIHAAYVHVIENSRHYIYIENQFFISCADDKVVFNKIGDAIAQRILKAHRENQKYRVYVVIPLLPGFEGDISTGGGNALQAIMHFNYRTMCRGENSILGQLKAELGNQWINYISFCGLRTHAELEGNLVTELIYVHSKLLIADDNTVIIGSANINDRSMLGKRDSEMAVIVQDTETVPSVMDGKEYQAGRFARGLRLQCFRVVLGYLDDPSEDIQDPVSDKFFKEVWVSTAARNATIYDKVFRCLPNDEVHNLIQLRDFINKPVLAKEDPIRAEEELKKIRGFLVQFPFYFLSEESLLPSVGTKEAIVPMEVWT
# note: boundary value 20 nM maps to false (0); IC50 below it maps to true (1)

O=C(NCCN1CCC(n2c(=O)[nH]c3ccccc32)CC1)c1cc2ccccc2s1 :: true (1)
O=C(NCCN1CCC(n2c(O)nc3ccccc32)CC1)c1ccc(Cl)c(Cl)c1 :: true (1)

Query: For this compound, is IC50 lower than 20 nM? O=C(NCCN1CCC(n2c(=O)[nH]c3ccccc32)CC1)c1cc(Br)c(Br)o1
Reply: true (1)

Query: Threshold test, IC50 < 20 nM: O=C(c1ccc(F)cc1)N(CCN1CCC(n2c(=O)[nH]c3ccccc32)CC1)C(=O)c1ccc(F)cc1
Reply: false (0)

Query: Threshold test, IC50 < 20 nM: O=C(NCCN1CCC(n2c(=O)[nH]c3ccccc32)CC1)n1c2ccccc2c2ccccc21
Reply: false (0)
